B1: EHMT1 (parent)
chain: FHKDCASRVNNASYCPHCGEESSK

- Variants of: B1
- experimentDescription: protein stability index of a GFP-peptide fusion (GPS, HEK-293T) (PSI 1-6); higher = more stable;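 note: lentivirally expressed fusions sorted by FACS into six bins by GFP to DsRed ratio, PSI derived from sequencing read proportions per bin multiplied by bin number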
- studyConditions: c terminus: a fixed tail appended
Items are presented alongside their recorded protein stability index.
readoutType: protein stability index

>>> print(df.to_string())
                      chainsequence              readouttype  obsvalue
 0  FHKDCASRVNNASYCPHCGLESSK [E20L]  protein stability index      2.78
 1  FHKDCASRVNNASYCPHCFEESSK [G19F]  protein stability index         3
 2   FKKDCASRVNNASYCPHCGEESSK [H2K]  protein stability index      4.17
 3   FHKDCISRVNNASYCPHCGEESSK [A6I]  protein stability index      3.23
 4  FHKDCASRVNNGSYCPHCGEESSK [A12G]  protein stability index      4.34
 5  FHKDCASRVNNASYSPHCGEESSK [C15S]  protein stability index      3.55
 6   FHKHCASRVNNASYCPHCGEESSK [D4H]  protein stability index      2.84
 7  FHKDCASRVNNASYCPHCGEESSW [K24W]  protein stability index      3.05
 8  FHKDCASRVNNAKYCPHCGEESSK [S13K]  protein stability index      3.46
 9  FHKDCASRVNNASYCPHCGEESDK [S23D]  protein stability index      3.39
10   FHFDCASRVNNASYCPHCGEESSK [K3F]  protein stability index      1.92
11  FHKDCASRVNNASYCPHCGEKSSK [E21K]  protein stability index      3.22
12  FHKDCASRVNNASYCPWCGEESSK [H17W]  protein stability index      2.16
13  FHKDCASRVNNASYCPHCMEESSK [G19M]  protein stability index      3.55
14  FHKDCASRVGNASYCPHCGEESSK [N10G]  protein stability index      3.74
15  FHKDCASRVNNASYCTHCGEESSK [P16T]  protein stability index      3.42
16   FHKDCASVVNNASYCPHCGEESSK [R8V]  protein stability index      3.34
17   FHKDYASRVNNASYCPHCGEESSK [C5Y]  protein stability index      2.25
18  FHKDCASRVNNAIYCPHCGEESSK [S13I]  protein stability index      2.17
19   FHKDCLSRVNNASYCPHCGEESSK [A6L]  protein stability index      2.85
20   FHKDCASNVNNASYCPHCGEESSK [R8N]  protein stability index      3.94
21   FNKDCASRVNNASYCPHCGEESSK [H2N]  protein stability index      4.18
22  FHKDCASRVNNISYCPHCGEESSK [A12I]  protein stability index      2.95
23  FHKDCASRVNNASYCPHCGEESEK [S23E]  protein stability index      3.21
24  FHKDCASRVNNDSYCPHCGEESSK [A12D]  protein stability index      4.27
25  FHKDCASRVNNASYCAHCGEESSK [P16A]  protein stability index      3.24
26  FHKDCASRVNNASYCPHCGYESSK [E20Y]  protein stability index      3.46
27  FHKDCASRVYNASYCPHCGEESSK [N10Y]  protein stability index      1.95
28  FHKDCASRVNNASYCPHCGEERSK [S22R]  protein stability index      3.05
29  FHKDCASRVNNASYCPHCGEETSK [S22T]  protein stability index      3.54
30  FHKDCASRVNNCSYCPHCGEESSK [A12C]  protein stability index      3.35
31  FHKDCASRVNNASYCPHCGEESSH [K24H]  protein stability index      3.45
32  FHKDCASRVNNASYCPHMGEESSK [C18M]  protein stability index      2.96
33  FHKDCASRVNNARYCPHCGEESSK [S13R]  protein stability index      3.16
34   FHGDCASRVNNASYCPHCGEESSK [K3G]  protein stability index      2.73
35   FHKDCAVRVNNASYCPHCGEESSK [S7V]  protein stability index      3.72
36  FHKDCASRVNMASYCPHCGEESSK [N11M]  protein stability index      3.36
37   HHKDCASRVNNASYCPHCGEESSK [F1H]  protein stability index      5.16
38   WHKDCASRVNNASYCPHCGEESSK [F1W]  protein stability index      4.02

Cited source for all entries: the supplement of paper PMC10567573
